Experiment: chemical genetic growth profiling, strain panel (AID 1159580);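 also: tested at 20 µM; growth read once vehicle control cultures reached saturation at 30 °C; 1 = growth at the plate median or of vehicle wells; lower values mean less growth of the strain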
Conditions: S. cerevisiae deletion strains, growth OD, locus YKL009W, strain mrt4, hits give low values
The campaign covered roughly 5,500 compounds. About 2,000 (36%) were called active. Another 18% or so got no clear call; they are omitted. The list shows a part of the results.
measurement kind: normalized growth
Enter a number only.

Completed entries (count: 2):
Requested field: normalized growth. Item: CN(C)CCOC(=O)C(c1ccccc1)C1(O)CCCC1 (configuration not stated)
1.02

Query (molecule): `COc1cc(C)c(C(=O)Oc2cc(C)c(C(=O)O)c(O)c2C)c(OC)c1C` ; field requested: normalized growth
0.992

Continuing:
Query (molecule): NCC(CC(=O)O)c1ccc(Cl)cc1 (configuration not stated) ; field requested: normalized growth
0.968

Name the reported normalized growth value associated with the molecule `O=C(O)CCCOc1ccc(Cl)cc1Cl`
0.967

Quick check: normalized growth of `NC(N)=O` ?
1

Any idea what its normalized growth is? The molecule is `O=c1cc(-c2ccccc2)oc2c(O)c(O)ccc12`
0.96

Would you kindly share the measured normalized growth for `COC(=O)CCCOc1ccc(Cl)cc1Cl` ?
1.01

Recorded normalized growth of `O=c1cc(-c2cc(O)c(O)c(O)c2)oc2cc(O)cc(O)c12` , please.
0.99

# lookup: normalized growth of `Cc1cc(=O)oc2c(O)c(O)ccc12`
0.979

Entry CC1(C)C(O)CC(O)C2(C)C1CC(O)C1(C)C2CCC2(C)C(c3ccoc3)OC(=O)C3OC321 (configuration not stated) : reported normalized growth = ?
0.962

Name the reported normalized growth value associated with the molecule `COC(=O)c1c(C)cc(OC(=O)c2c(C)c(Cl)c(O)c(C=O)c2O)c(C)c1O`
0.984

So what's the measured normalized growth for this one? `COc1c(Cl)ccc(Cl)c1C(=O)O`
1.02

====

Test: chemical genetic growth profiling, strain panel (AID 1159580);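 also: tested at 20 µM; growth read once vehicle control cultures reached saturation at 30 °C; 1 = growth at the plate median or of vehicle wells; lower values mean less growth of the strain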
Settings: S. cerevisiae deletion strains, growth OD, locus YOL006C, strain TOP1, hits give low values
Out of some 5,500 compounds screened, about 2,000 (36%) were called active. Another 18% or so got no clear call; they are omitted. The list shows a part of the results.
# reported normalized growth; entries follow
Would you mind answering with just the numeric figure?

Solved entries:
Quick one: normalized growth of COC(=O)CCC(=O)O[C@H]1CCC2(C)C(CCC3C2C(=O)[C@@H](O)C2(C)C3CC3OC4(CCC(C)CO4)[C@@H](C)C32)C1 (stereo partly specified) ?
0.943

For the compound `N[C@@H]1[C@@H](O)[C@H](O)[C@@H](CO)O[C@H]1O` , what normalized growth is on record?
1.05

Value lookup for normalized growth; key = `NC(N)=O`
1.21

Requested read-out: normalized growth. Entry: `O=C(Nc1nncs1)c1ccncc1`
1.08

GET /values?readout=normalized growth&item= CCCCCC1C(=O)CCC1CC(=O)O (stereo unspecified)
1.02

Next compound, normalized growth to be filled in.
Request the reported normalized growth associated with `O=C(Nc1nccs1)c1ccc([N+](=O)[O-])cc1`
0.514

====

Test: chemical genetic growth profiling, strain panel (AID 1159580);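 also: tested at 20 µM; growth read once vehicle control cultures reached saturation at 30 °C; 1 = growth at the plate median or of vehicle wells; lower values mean less growth of the strain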
Conditions: S. cerevisiae deletion strains, growth OD, locus YFR019W, strain FAB1
Out of some 5,500 compounds screened, about 2,000 (36%) were called active. About 18% were inconclusive and are not listed. Rule as the data show it: active = normalized growth mostly below about 0.91 (no sharp cut-off); inconclusive = no clear call, values can overlap the other calls; inactive = mostly above about 0.92. Some of the results follow.
Response enum: YES (active), NO (inactive)

Use these answered entries as a reference point.
Hello, I am checking results. What call was entered for `O=C(CCn1c(=O)oc2ccccc21)Sc1ccc(C(F)(F)F)cc1` ?
NO

Please share the test call associated with `Cc1onc(-c2ccccc2)c1C(=O)Sc1ccc(C(F)(F)F)cn1` .
YES

Returns: the outcome recorded for `Cc1c(S(=O)(=O)c2ccc(Cl)cc2)csc1C(=O)NNc1cccc(Cl)c1` in this assay.
YES

Hello, I am checking results. What call was entered for COc1ccc(CC2CCC(=NOC(=O)c3ccc(C(C)(C)C)cc3)CC2)cc1 (stereo not drawn) ?
NO

Answer briefly: the call reported for `O=C(CCn1c(=O)oc2ccccc21)Sc1ccc(Cl)cc1Cl` in this assay.
YES

Recorded call for CC1C/C(=N/Nc2ccc(Br)cc2)c2cc(Cl)ccc2S1(=O)=O (stereo not drawn) ?
YES

Kindly provide the recorded test outcome for the following compound: CC1C/C(=N/Nc2ccc(Br)cc2)c2cc(Cl)ccc2S1 (stereo not drawn)
YES

Proceed to the following item.
Called result for `CS(=O)(=O)c1sc(C(=O)Sc2ccc(Cl)cc2)c2c1C=CCC2`
YES
